test_readout: pKi
In plain terms, pKi is the concentration in mol/L turned into minus its base-10 logarithm.

The reported hA3AR (Homo sapiens) pKi of N=c1ccc2c(-c3ccc(C(=O)NCCCCCCn4cc(CCCC(=O)Nc5nc6ccc(Cl)cc6c6nc(-c7ccco7)nn56)nn4)cc3C(=O)O)c3ccc(N)c(S(=O)(=O)O)c3oc-2c1S(=O)(=O)O [Compound 9] is 8.19
